# Target or test system: HLA-A*02:01
# Assay name: IEDB peptide-MHC binding, purified MHC/direct/fluorescence; filed as Kd, often an IC50 or EC50 that approximates it; bounds were set here for any values at or beyond the usual limits of such assays
# Measurement conditions: source organism: Cryptosporidium parvum Iowa II
pKd: −log10 of the molar value.
Measure: pKd

// query What value of pKd has been reported for the following sequence? DHIPIINTL
// result ≤ 4.70

====

# Target or test system: HLA-B*15:01
# Assay name: IEDB peptide-MHC binding, purified MHC/competitive/fluorescence; filed as Kd, often an IC50 or EC50 that approximates it; bounds were set here for any values at or beyond the usual limits of such assays
# Measurement conditions: source organism: Four Corners hantavirus
Measure: Kd

// query What value of Kd has been reported for the following sequence? PELGAFFAI
// result ≥ 20 µM

====

# Target or test system: HLA-A*23:01
# Assay name: IEDB peptide-MHC binding, purified MHC/competitive/fluorescence; filed as Kd, often an IC50 or EC50 that approximates it; bounds were set here for any values at or beyond the usual limits of such assays
# Measurement conditions: source organism: Giardia lamblia ATCC 50803
Measure: Kd

// query What value of Kd has been reported for the following sequence? STTTCEAGV
// result ≥ 20 µM

====

# Target or test system: HLA-A*02:01
# Assay name: IEDB peptide-MHC binding, purified MHC/direct/fluorescence; filed as Kd, often an IC50 or EC50 that approximates it; bounds were set here for any values at or beyond the usual limits of such assays
# Measurement conditions: source organism: Ebola virus - Mayinga, Zaire, 1976
pKd: −log10 of the molar value.
Measure: pKd

// query Form: Entry = SRTPSGKRL | System = HLA-A*02:01 | pKd = ____
// result ≤ 4.70

====

# Target or test system: HLA-A*03:01
# Assay name: IEDB peptide-MHC binding, purified MHC/direct/fluorescence; filed as Kd, often an IC50 or EC50 that approximates it; bounds were set here for any values at or beyond the usual limits of such assays
# Measurement conditions: source organism: Ravn virus - Ravn, Kenya, 1987
Measure: Kd

// query Form: Entry = FPSNMMVVT | System = HLA-A*03:01 | Kd = ____
// result ≥ 20 µM

====

So I've got a bunch of sequences here, and I need their Kd values.
# Target or test system: HLA-A*26:01
# Assay name: IEDB peptide-MHC binding, purified MHC/competitive/radioactivity; filed as Kd, often an IC50 or EC50 that approximates it; bounds were set here for any values at or beyond the usual limits of such assays
# Measurement conditions: source organism: SARS coronavirus Tor2
The answer is to be given in µM; state only the numeric part.

// query Form: Entry = LTGHMLDMY | System = HLA-A*26:01 | Kd = ____
// result 10.5

// query Form: Entry = TSTGNYNYKY | System = HLA-A*26:01 | Kd = ____
// result 1.26

// query Form: Entry = IGAGICASY | System = HLA-A*26:01 | Kd = ____
// result 6.65

// query Form: Entry = YYPSARIVY | System = HLA-A*26:01 | Kd = ____
// result 1.37

// query Form: Entry = NAAISDYDYY | System = HLA-A*26:01 | Kd = ____
// result 1.64

====

# Target or test system: HLA-A*01:01
# Assay name: IEDB peptide-MHC binding, purified MHC/direct/fluorescence; filed as Kd, often an IC50 or EC50 that approximates it; bounds were set here for any values at or beyond the usual limits of such assays
# Measurement conditions: source organism: Entamoeba histolytica HM-1:IMSS
pKd: −log10 of the molar value.
Measure: pKd

// query What value of pKd has been reported for the following sequence? ETMKPAAMV
// result ≤ 4.70

====

# Target or test system: HLA-B*18:01
# Assay name: IEDB peptide-MHC binding, purified MHC/competitive/fluorescence; filed as Kd, often an IC50 or EC50 that approximates it; bounds were set here for any values at or beyond the usual limits of such assays
# Measurement conditions: source organism: Campylobacter jejuni subsp. jejuni NCTC 11168 = ATCC 700819
Measure: Kd

// query What value of Kd has been reported for the following sequence? AELIDSFTW
// result 462 nM

====

# Target or test system: HLA-B*40:01
# Assay name: IEDB peptide-MHC binding, purified MHC/direct/fluorescence; filed as Kd, often an IC50 or EC50 that approximates it; bounds were set here for any values at or beyond the usual limits of such assays
# Measurement conditions: source organism: Rickettsia conorii
pKd: −log10 of the molar value.
Measure: pKd

// query Form: Entry = RTGDIGCFK | System = HLA-B*40:01 | pKd = ____
// result ≤ 4.70

====

# Target or test system: HLA-B*54:01
# Assay name: IEDB peptide-MHC binding, purified MHC/competitive/radioactivity; filed as Kd, often an IC50 or EC50 that approximates it; bounds were set here for any values at or beyond the usual limits of such assays
# Measurement conditions: source organism: Vaccinia virus WR
Measure: Kd (nM)
The answer is to be given in nM; state only the numeric part.

// query What value of Kd has been reported for the following sequence? MPNESRVKQW
// result 5360

// query What value of Kd has been reported for the following sequence? LPSLEYGANY
// result 960

// query What value of Kd has been reported for the following sequence? VPDADPPIPY
// result 19300

// query What value of Kd has been reported for the following sequence? RPSIGNVFKA
// result 644

// query What value of Kd has been reported for the following sequence? CPKIFNNNY
// result 13000

// query What value of Kd has been reported for the following sequence? DPEYFDNERI
// result 2260

// query What value of Kd has been reported for the following sequence? SPMLYQLLEA
// result 8.77

// query What value of Kd has been reported for the following sequence? VPVLEKKVCA
// result 256

// query What value of Kd has been reported for the following sequence? HPFIYVIRHV
// result 2.71

// query What value of Kd has been reported for the following sequence? TPNYMKLLV
// result 30.7

// query What value of Kd has been reported for the following sequence? SPMVIATTDM
// result 1040

====

# Target or test system: HLA-A*30:01
# Assay name: IEDB peptide-MHC binding, purified MHC/competitive/radioactivity; filed as Kd, often an IC50 or EC50 that approximates it; bounds were set here for any values at or beyond the usual limits of such assays
# Measurement conditions: source organism: Mammarenavirus juninense
Measure: Kd
Give your result as the value with the unit written after it.

// query Form: Entry = IAMGYVVSSF | System = HLA-A*30:01 | Kd = ____
// result 9.1 µM

====

# Target or test system: HLA-B*57:01
# Assay name: IEDB peptide-MHC binding, purified MHC/competitive/fluorescence; filed as Kd, often an IC50 or EC50 that approximates it; bounds were set here for any values at or beyond the usual limits of such assays
# Measurement conditions: source organism: Salmonella enterica subsp. enterica serovar Typhi
Measure: Kd (nM)
The answer is to be given in nM; state only the numeric part.

// query What value of Kd has been reported for the following sequence? IVLLCYGGW
// result 498

====

# Target or test system: HLA-B*07:02
# Assay name: IEDB peptide-MHC binding, purified MHC/direct/fluorescence; filed as Kd, often an IC50 or EC50 that approximates it; bounds were set here for any values at or beyond the usual limits of such assays
# Measurement conditions: source organism: Escherichia coli 536
pKd: −log10 of the molar value.
Measure: pKd

// query What value of pKd has been reported for the following sequence? RMYGISPWT
// result ≤ 4.70

====

# Target or test system: HLA-A*11:01
# Assay name: IEDB peptide-MHC binding, purified MHC/direct/fluorescence; filed as Kd, often an IC50 or EC50 that approximates it; bounds were set here for any values at or beyond the usual limits of such assays
# Measurement conditions: source organism: Corynebacterium efficiens
pKd: −log10 of the molar value.
Measure: pKd

// query What value of pKd has been reported for the following sequence? ITWETPMIW
// result ≤ 4.70

====

So I've got a bunch of sequences here, and I need their pKd values.
# Target or test system: HLA-B*57:01
# Assay name: IEDB peptide-MHC binding, purified MHC/competitive/fluorescence; filed as Kd, often an IC50 or EC50 that approximates it; bounds were set here for any values at or beyond the usual limits of such assays
# Measurement conditions: source organism: Burkholderia mallei SAVP1
pKd: −log10 of the molar value.

// query What value of pKd has been reported for the following sequence? RFNAIWFNH
// result ≤ 4.70

// query What value of pKd has been reported for the following sequence? RLDARLQVL
// result ≤ 4.70

====

# Target or test system: HLA-B*57:01
# Assay name: IEDB peptide-MHC binding, purified MHC/competitive/fluorescence; filed as Kd, often an IC50 or EC50 that approximates it; bounds were set here for any values at or beyond the usual limits of such assays
# Measurement conditions: source organism: Bacillus thuringiensis serovar israelensis ATCC 35646
pKd: −log10 of the molar value.
Measure: pKd

// query What value of pKd has been reported for the following sequence? ITMYVAFEQ
// result ≤ 4.70
